These data points were gathered from PubChem BioAssay (NCATS).

tested on: CP329; assay: qHTS profiling for inhibitors of Plasmodium falciparum proliferation (AID 504749); also: nearly all actives have a fitted effect of over 60% in size; conditions: P. falciparum in erythrocytes, SYBR Green DNA, 72 h; series mostly up to 28.7 µM
Records with an inconclusive call do not appear. The source made the active and inactive calls. Calls follow the shape of the dose curve; as a rule, active = well fitted inhibition curve with a large enough effect; inconclusive = small, poorly fitted or top-dose-only effect; inactive = flat fitted curve, though single readings scatter.
Give one outcome, nothing more. List: y for active, n for inactive

# count of solved cases: 5
>  <COMPOUND>
NNc1nncc2ccccc12

>  <LABEL CLASS>
n

$$$$
>  <COMPOUND>
Nc1ccn([C@@H]2O[C@H](CO)[C@@H](O)C2O)c(=O)n1 (stereo partly specified)

>  <LABEL CLASS>
n

$$$$
>  <COMPOUND>
CC(C)(S)[C@@H](N)C(=O)O

>  <LABEL CLASS>
n

$$$$
>  <COMPOUND>
COC1=C(OC)C(=O)C(CCCCCCCCCCO)=C(C)C1=O

>  <LABEL CLASS>
n

$$$$
>  <COMPOUND>
CN(C)C(=O)COC(=O)Cc1ccc(OC(=O)c2ccc(N=C(N)N)cc2)cc1

>  <LABEL CLASS>
n

$$$$

Task item: Dear all, I need the recorded test outcome for CN(c1nccc(=O)[nH]1)C1CCN(c2nc3ccccc3n2Cc2ccc(F)cc2)CC1 , thank you.
Reply: n

Task item: Dear all, I need the recorded test outcome for Cc1ncc([N+](=O)[O-])n1CC(C)O (stereo unspecified) , thank you.
Reply: n

Task item: Dear all, I need the recorded test outcome for C[Se]CCC(N)C(=O)O (stereo unspecified) , thank you.
Reply: n

Task item: Dear all, I need the recorded test outcome for C=C(c1ccc(C(=O)O)cc1)c1cc2c(cc1C)C(C)(C)CCC2(C)C , thank you.
Reply: n

Task item: Dear all, I need the recorded test outcome for COc1ccc(C2(C#N)CCC(C(=O)O)CC2)cc1OC1CCCC1 (stereo unspecified) , thank you.
Reply: n

---

assay: Quantitative High-Throughput drug screen in 47 multiple myeloma cell lines against the NCATS MIPE library collection: KMM1_JCRB cell viability assay (AID 1918960); details: KMM1 myeloma viability, CellTiter-Glo ATP luminescence, 48 h; series mostly up to 45.8 µM; also: nearly all actives have a fitted effect of over 30% in size
Results filed as inconclusive are left out. The source made the active and inactive calls. Calls come from the whole dose curve; as a rule, active = well fitted cell-killing curve with a large enough effect; inconclusive = small, poorly fitted or top-dose-only effect, or effect the other way; inactive = no such curve, though single readings can be large or run the other way.
Give one outcome, nothing more. List: 1 (yes) (active), 0 (no) (inactive)

# count of solved cases: 2
>  <COMPOUND>
CN(C)c1ccc(O)c2c1C[C@H]1C[C@H]3[C@H](N(C)C)C(=O)C(C(N)=O)=C(O)[C@@]3(O)C(=O)C1=C2O

>  <LABEL CLASS>
0 (no)

$$$$
>  <COMPOUND>
O=C(O)c1cn(-c2ccc(F)cc2)c2cc(N3CCNCC3)c(F)cc2c1=O

>  <LABEL CLASS>
0 (no)

$$$$

Task item: Dear all, I need the recorded test outcome for CC1(C)C(=O)N(CCN2CCC(C(=O)c3ccc(F)cc3)CC2)c2ccccc21 , thank you.
Reply: 1 (yes)

Task item: Dear all, I need the recorded test outcome for COc1c2occc2cc2ccc(=O)oc12 , thank you.
Reply: 0 (no)

Task item: Dear all, I need the recorded test outcome for c1cnc2cc3c(cc2n1)C1CNCC3C1 , thank you.
Reply: 0 (no)

---

tested on: 3D7; experiment: qHTS profiling for inhibitors of Plasmodium falciparum proliferation (AID 504749); also: nearly all actives have a fitted effect of over 60% in size; conditions: P. falciparum in erythrocytes, SYBR Green DNA, 72 h; series mostly up to 28.7 µM
Records with an inconclusive call do not appear. Activity calls are given as the source filed them. Calls follow the shape of the dose curve; as a rule, active = well fitted inhibition curve with a large enough effect; inconclusive = small, poorly fitted or top-dose-only effect; inactive = flat fitted curve, though single readings scatter.
Give one outcome, nothing more. List: active, inactive

# count of solved cases: 5
>  <COMPOUND>
Cc1cccc(C)c1OCC(=O)N[C@@H](Cc1ccccc1)[C@@H](O)C[C@H](Cc1ccccc1)NC(=O)[C@H](C(C)C)N1CCCNC1=O

>  <LABEL CLASS>
active

$$$$
>  <COMPOUND>
O=C(O)CCNC(=O)c1ccc(N=Nc2ccc(O)c(C(=O)O)c2)cc1

>  <LABEL CLASS>
inactive

$$$$
>  <COMPOUND>
O=C(CS(=O)Cc1ccco1)NCC=CCOc1cc(CN2CCCCC2)ccn1 (stereo unspecified)

>  <LABEL CLASS>
inactive

$$$$
>  <COMPOUND>
CCc1nc(N)nc(N)c1-c1ccc(Cl)cc1

>  <LABEL CLASS>
active

$$$$
>  <COMPOUND>
CCC(C)(Oc1ccc(C2(c3ccc(OC(C)(CC)C(=O)O)cc3)CCCCC2)cc1)C(=O)O (stereo unspecified)

>  <LABEL CLASS>
inactive

$$$$

Task item: Dear all, I need the recorded test outcome for N[C@@H](Cc1cc(I)c(Oc2cc(I)c(O)c(I)c2)c(I)c1)C(=O)O , thank you.
Reply: inactive

Task item: Dear all, I need the recorded test outcome for CC1(C)CCC(C)(C)c2cc(NC(=O)c3ccc(C(=O)O)cc3)ccc21 , thank you.
Reply: inactive

Task item: Dear all, I need the recorded test outcome for Nc1nc(Cl)nc2c1ncn2[C@H]1C[C@H](O)[C@@H](CO)O1 , thank you.
Reply: inactive

Task item: Dear all, I need the recorded test outcome for O=c1oc2cc(O)ccc2s1 , thank you.
Reply: inactive

Task item: Dear all, I need the recorded test outcome for COc1cc(OC)c(C(=O)CCCN2CCCC2)c(OC)c1 , thank you.
Reply: inactive

Task item: Dear all, I need the recorded test outcome for CS(=O)(=O)OCCCCOS(C)(=O)=O , thank you.
Reply: inactive

---

tested on: CASKI; test: Primary qHTS to identify gynecologic anti-cancer compounds using libraries of approved drugs and bioactive compounds (AID 1345084); conditions: Gynecologic cancer cell panel viability, ATPlite luminescence, 48 h; series mostly up to 57.5 µM; also: nearly all actives have a fitted effect of over 55% in size
Results filed as inconclusive are left out. Calls of active or inactive are those of the source. The call rests on the fitted dose curve; in most records, active means well fitted cell-killing curve with a large enough effect; inconclusive means small, poorly fitted or top-dose-only effect, or effect the other way; inactive means flat fitted curve, though single readings scatter.
Give one outcome, nothing more. List: 1 for active, 0 for inactive

>  <COMPOUND>
CC(C)[C@H](N)C(=O)OCCOCn1cnc2c(=O)[nH]c(N)nc21

>  <STUDY TARGET>
CASKI

>  <LABEL CLASS>
0

$$$$

Task item: Dear all, I need the recorded test outcome for CC1(C)NC(=O)N(c2ccc([N+](=O)[O-])c(C(F)(F)F)c2)C1=O , thank you.
Reply: 0

Task item: Dear all, I need the recorded test outcome for Oc1ccc(OCc2ccccc2)cc1 , thank you.
Reply: 0

Task item: Dear all, I need the recorded test outcome for C=C(c1ccc(C(=O)O)cc1)c1cc2c(cc1C)C(C)(C)CCC2(C)C , thank you.
Reply: 0

Task item: Dear all, I need the recorded test outcome for O=C(OC1C[C@H]2CC[C@@H](C1)[N+]21CCCC1)C(O)(c1ccccc1)c1ccccc1 (stereo not given in full) , thank you.
Reply: 0

Task item: Dear all, I need the recorded test outcome for CCN(CC)CCOc1ccc(Cc2ccccc2)cc1 , thank you.
Reply: 0

Task item: Dear all, I need the recorded test outcome for S=c1nc[nH]c2nc[nH]c12 , thank you.
Reply: 1

Task item: Dear all, I need the recorded test outcome for CN(c1nccc(=O)[nH]1)C1CCN(c2nc3ccccc3n2Cc2ccc(F)cc2)CC1 , thank you.
Reply: 0

Task item: Dear all, I need the recorded test outcome for C=CCc1cc(OC)c(O)c(C(=O)NCCO)c1 , thank you.
Reply: 0

---

assay: qHTS of pediatric cancer cell lines to identify multiple opportunities for drug repurposing: Primary screen for OHS-50 cells (AID 1347103); details: OHS-50 osteosarcoma viability, CellTiter-Glo luminescence, 48 h; series mostly up to 57.3 µM;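 also: plate controls were DMSO neutral control for no effect and bortezomib positive control for full effect; nearly all actives have a fitted effect of over 40% in size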
Results filed as inconclusive are left out. Calls of active or inactive are those of the source. The call rests on the fitted dose curve; in most records, active means well fitted cell-killing curve with a large enough effect; inconclusive means small, poorly fitted or top-dose-only effect; inactive means no such curve, though single readings can be large or run the other way.
Give one outcome, nothing more. List: Yes = active, No = inactive

Task item: Dear all, I need the recorded test outcome for O=C(CS(=O)Cc1ccco1)NCC=CCOc1cc(CN2CCCCC2)ccn1 (stereo not given) , thank you.
Reply: No

Task item: Dear all, I need the recorded test outcome for CC1=C(C)C(=O)C(C(CCCCCC(=O)O)c2ccccc2)=C(C)C1=O (stereo not given) , thank you.
Reply: No

Task item: Dear all, I need the recorded test outcome for C[C@]12CCC(=O)C=C1CC[C@@H]1[C@H]2[C@@H](O)C[C@@]2(C)[C@H]1CC[C@]2(O)C(=O)CO , thank you.
Reply: No

Task item: Dear all, I need the recorded test outcome for CCOC(=O)C1=C[C@@H](OC(CC)CC)[C@H](NC(C)=O)[C@@H](N)C1 , thank you.
Reply: No

---

assay: HepG2 cells viability qHTS for Zika virus inhibitors (AID 1347168); settings: Zika counter-screen; series mostly up to 45.9 µM
Inconclusive results are not listed. Active and inactive are the calls of the source. Calls follow the shape of the dose curve; as a rule, active = well fitted cell-killing curve with a large enough effect; inconclusive = small, poorly fitted or top-dose-only effect; inactive = flat fitted curve, though single readings scatter.
Give one outcome, nothing more. List: active, inactive

# count of solved cases: 4
>  <QUERY SMILES>
Cc1nc(-c2ccc(OCC(C)C)c(C#N)c2)sc1C(=O)O

>  <LABEL CLASS>
inactive

$$$$
>  <QUERY SMILES>
Oc1ccc(-c2nc(-c3ccc(F)cc3)c(-c3ccncc3)[nH]2)cc1

>  <LABEL CLASS>
inactive

$$$$
>  <QUERY SMILES>
CN(C)c1ccc(O)c2c1C[C@H]1C[C@H]3[C@H](N(C)C)C(=O)C(C(N)=O)=C(O)[C@@]3(O)C(=O)C1=C2O

>  <LABEL CLASS>
inactive

$$$$
>  <QUERY SMILES>
CC(C)c1ccc2c(c1)c(SC(C)(C)C)c(CC(C)(C)C(=O)O)n2Cc1ccc(Cl)cc1

>  <LABEL CLASS>
inactive

$$$$

Task item: Dear all, I need the recorded test outcome for COc1c2occc2cc2ccc(=O)oc12 , thank you.
Reply: inactive

Task item: Dear all, I need the recorded test outcome for CC(C)C[C@H](NC(=O)[C@H](Cc1ccccc1)NC(=O)c1cnccn1)B(O)O , thank you.
Reply: active

Task item: Dear all, I need the recorded test outcome for O=C(O)c1cn(-c2ccc(F)cc2)c2cc(N3CCNCC3)c(F)cc2c1=O , thank you.
Reply: inactive
